System: U251 CNS
Test: NCI tumour cell line growth inhibition, 48 h
The following compounds are shown together with reported log10 TGI values.
measured_quantity: log10 TGI (log10 of the value in µM)

INSERT INTO results (compound, measured_quantity, readout_number) VALUES
  ('O=Cc1ccc(O)c2ncccc12', 'log10 TGI', 1.37),
  ('CC(C)(C)c1cc(C(=O)/C=C/c2ccc3c(c2)CCO3)cc(C(C)(C)C)c1O', 'log10 TGI', 0.50),
  ('O=C1/C(=C/c2ccc(Cl)cc2)COc2ccc(O)c(O)c21', 'log10 TGI', 0.31),
  ('O=C1C(=O)c2ccccc2C(O)=C1CCCCCCCCC1CCCCC1', 'log10 TGI', 1.25),
  ('CCCN(CCC)C(=O)[C@H](CC)[C@@H]1CC[C@@H](C)[C@@H]([C@H](C)[C@@H](O)[C@@H](C)C(=O)[C@H](CC)C2O[C@]3(C=C[C@@H](O)[C@]4(CC[C@@](C)([C@H]5CC[C@](O)(CC)[C@H](C)O5)O4)O3)[C@H](C)C[C@@H]2C)O1 (some centres undefined)', 'log10 TGI', 0.99);

----------
Tested on: MALME-3M melanoma
Assay: NCI tumour cell line growth inhibition, 48 h
measured_quantity: TGI

INSERT INTO results (compound, result) VALUES
  ('COc1cc([N+](=O)[O-])c(OC)cc1-c1nc2sc(Cl)cn2c1/C=N/NC(=N)N/N=C/c1c(-c2cc(OC)c([N+](=O)[O-])cc2OC)nc2sc(Cl)cn12', '3.28 µM'),
  ('CCOc1ccccc1NC(=O)C1=C(C)NC(C)=C(C(=O)Nc2ccccc2OCC)C1c1ccc(NC(C)=O)cc1', '> 100 µM'),
  ('CC[C@](C)(O)C(=O)O[C@H]1C(=O)O[C@@H]2C[C@H]3C(C)=C[C@H](O)[C@@H](O)[C@]3(C)[C@H]3[C@@]4(O)OC[C@]32[C@@H]1[C@@H](C)[C@H]4O', '34.1 µM'),
  ('COC1=CC(=O)[C@]2(C)[C@H](C1=O)C(C)[C@H]2c1ccccc1 (stereo not given in full)', '> 100 µM'),
  ('C=CCCCCCC(O)C(O)C/C=C\C/C=C\CC (stereo not given)', '> 18.8 µM'),
  ('NS(=O)(=O)c1nnc(/N=C(/CCC(=O)O)C(=O)O)s1', '> 100 µM'),
  ('CCOC(=O)/C=C/c1c[nH]c(C(=O)OCC)c1', '> 100 µM'),
  ('O=C1c2c(nc3ccccc3c2-c2ccccc2)CN1Nc1ccccc1', '> 100 µM'),
  ('O=c1n(CCCCn2c(=O)n(CC3CS3)c3ccccc32)c2ccccc2n1CC1CS1 (stereo not given)', '22.8 µM'),
  ('Oc1c(N=Nc2ccccc2)c2ccccc2c2ccc3ccccc3c12', '> 100 µM');

----------
Here, each record is paired with measured TGI data.
Tested on: SNB-75 CNS
Test: NCI tumour cell line growth inhibition, 48 h
measured_quantity: TGI (µM)

INSERT INTO assay_data (molecule, measured_quantity, unit_label, censoring_sign, readout_number) VALUES
  ('CCCCCCCCCC1CC(=O)NCC(=O)NC(C(C)C)C(=O)NC(CC(C)C)C(=O)NC(C)C(=O)NC(C(C)C)C(=O)O1 (stereo unspecified)', 'TGI', 'µM', '=', 18.2),
  ('O=C(N/N=C\c1ccc(N(CCCl)CCCl)cc1Cl)c1cccnc1', 'TGI', 'µM', '=', 73.7),
  ('[C-]#[N+]C1(C(=O)OCC)CC1', 'TGI', 'µM', '>', 100),
  ('Cc1ccc(/C=C2\CCCC\C2=N\O)cc1', 'TGI', 'µM', '=', 81.3),
  ('Clc1ccc(-c2nnc(C34CC5CC(CC(C5)C3)C4)o2)cc1', 'TGI', 'µM', '>', 100),
  ('CC(=O)OC[C@@H](OC(C)=O)[C@@H](OC(C)=O)[C@H]1OC[C@@H]2C[C@H]([C@H]1OC(C)=O)N(Cc1ccccc1)O2', 'TGI', 'µM', '>', 100),
  ('CC1(C)C2C/C(=C\c3ccccc3)C(=O)C1C2 (stereo unspecified)', 'TGI', 'µM', '=', 97.5),
  ('CN(C)c1ccc(O)c2c1C[C@H]1C[C@H]3[C@H](N(C)C)C(=O)C(C(N)=O)=C(O)[C@@]3(O)C(=O)C1=C2O', 'TGI', 'µM', '=', 68.7),
  ('O=C(CC(C(=O)c1cccs1)c1ccsc1)c1ccco1 (stereo unspecified)', 'TGI', 'µM', '=', 84.4),
  ('CS/C(c1ccccc1)=[N+](/C)[O-]', 'TGI', 'µM', '>', 100),
  ('OC(CNC1CCCC1)Cn1c2ccccc2c2ccccc21 (stereo unspecified)', 'TGI', 'µM', '=', 26.5),
  ('CC(C)CCc1c(Cl)nc(Cl)nc1Cl', 'TGI', 'µM', '=', 22.3),
  ('CO/N=C(/C(=O)OC)c1ccccc1COc1cccc(C(F)(F)F)c1', 'TGI', 'µM', '>', 100),
  ('COc1ccc(/C(C)=N/NC(=O)c2ccncc2)cc1OC', 'TGI', 'µM', '>', 10),
  ('Cc1ccc(C2=C(c3ccccc3)C(Br)(c3ccccc3)C(c3ccccc3)=C2c2ccc(C)cc2)cc1', 'TGI', 'µM', '>', 100),
  ('CC[N+]1(C)CCC(O)(/C=C/c2ccc(Cl)cc2)C(C(=O)/C=C/c2ccc(Cl)cc2)C1 (stereo unspecified)', 'TGI', 'µM', '=', 26.7),
  ('Cc1c(F)c(N)c2c(=O)cc(-c3ccc(NC(=O)[C@@H](N)CCCCN)c(F)c3)oc2c1F', 'TGI', 'µM', '=', 13.6),
  ('O=C(OC(/C=C/c1ccccc1)P1(=O)N(Cc2ccccc2)[C@@H]2CCCC[C@H]2N1Cc1ccccc1)c1ccccc1 (stereo partly specified)', 'TGI', 'µM', '>', 28.1),
  ('COC(=O)CCC(C)C1CCC2C3CCC4CC5CCC4(C)C3(O5)C(Br)C(Br)C12C (stereo unspecified)', 'TGI', 'µM', '>', 100),
  ('O=C(Cc1ccccc1)NNc1nc(NNC(=O)c2ccncc2)nc(Nc2ccc(Cl)cc2)n1', 'TGI', 'µM', '>', 10),
  ('S=C(Nc1ccccc1)N(Cc1ccccc1)c1ccccc1', 'TGI', 'µM', '>', 100);
